- TESTED_ON: T1, human HER-2 protein (soluble / recombinant, used in SPR) (human, UniProt P04626 23-652)
- T1 construct: also called immobilized HER2 protein; recombinant HER-2
- EXPERIMENT_DESCRIPTION: SPR, immobilized HER2 protein
Catalogue of log10(koff) values
Each number you see is log10 of koff, and the unit inside the log is s⁻¹.

BINDER | log10(koff)
PFD3 Fab (Fab, V domains shown, Printed entries run through CL and CH1 (Fab chains); Label D3 tied to PFD3 by inference) VH: EVQLVQSGAEVKKPGESLKISCKGSGYSFTSYWIGWVRQMPGKGLEWMGIIYPGDSDTRYSPSFQGQVTISADKSISTAYLQWSSLKASDTAMYYCARLGYGVPLPEYFDLWGRGTLVTVSS VL: QAVVIQEPSFSVSPGGTVTLTCALTSGSVSTSYYPSWYQQTPGQPPRTLIYSTNLRSSGVPDRFSGSILGNKAALTITGAQADDESDYYCELYMGSGISVFGGGTKVTVLG | -1.57
PFE2 Fab (Fab, V domains shown, Printed entries run through CL and CH1 (Fab chains); Label E2 tied to PFE2 by inference) VH: EVQLVQSGGGVVQPGRSLRLSCAASGFTFSSYAMHWVRQAPGKGLEWVAVISYDESNKYYADSVKGRFTISRDNSKNTLYLQMNSLRAEDTAVYYCAREPSGSWSYLYYYYYGMDVWGQGTTVTVSS VL: DVVMTQSPLSLPVTPGEPASISCRSSQSLLRSDGYNFVDWYLQKAGQSPQLLIHLGSDRASGVPDRFSGSGSGTDFTLRISRVEAEDVGVYYCMQALQTPRTFGQGTKVEIKR | -1.73
PFG4 Fab (Fab, V domains shown, Printed entries run through CL and CH1 (Fab chains); Label G4 tied to PFG4 by inference) VH: QVQLQQSGAEVKKPGSSVKVSCKASGGTFSSYAISWVRQAPGQGLEWMGGIIPIFGTANYAQKFQGRVTITADKSTSTAYMELSSLRSEDTAVYYCARGADWNSDYWGQGTLVTVSS VL: QSVLTQPPSVSKALRQTATLTCTGNNNNVGFAGAAWFLQHQGHPPKLLAYRNNDRPSGISERFSASRSGNTASLTITGLQPEDEADYYCSAWDSSLKVQVFGGGTKLTVLG | -3.20
PFA1 Fab (Fab, V domains shown, Entries are labelled light/heavy chain VD but as printed run through CL and CH1 (Fab chains); Label A1 tied to PFA1 by inference) VH: EVQLVQSGGGVVQPGRSLRLSCAASGFTFSSYGMHWVRQAPGKGLEWVAVISYDGSNKYYADSVKGRFTISRDNSKNTLFLQMNSLRAEDTAVYYCARDLFAVVGYYYYYGMDVWGQGTTVTVSS VL: EIVLTQSPFSLPVTPGEPASISCRSSQSLLHSNGFNYLDWYLQKPGQSPQLLIYLGSNRASGVPDRFSGSGSGTDFTLKISRVEAEDVGVYYCMQGLQTPYTFGQGTKLEIKR | -2.38

Pending binder:
Answer with the recorded log10(koff) of clone E4 Fab (P1E4, from the phage display Fab library) (Fab, V domains shown) VH: QVQLQQWGAGLLKPSETLSLTCAVYGGSFSGYYWSWIRQPPGKGLEWIGEINHSGSTNYNPSLKSRVTISVDTSKNQFSLKLSSVTTADTAVYYCARMGINSGGYLYGMDVWGQGTTVTVSS VL: QTVVTQEPSFSVSPGGTVTLTCGLSSGSVSTSYYPSWYQQIPGQAPRTLIYTTNIRSSGVPDRFGGSILGNKAALTITGAQAEDESDYYCMLYMGSGIWVFGGGTKLTVLG only.
-2.74

These entries and their values trace back to patent US20210139605A1.
